tested on: SARS-CoV-2 replicon; assay: microbe, parasite or virus in culture; assay type: cell-based; conditions: Severe acute respiratory syndrome coronavirus 2, Huh-7
propertyMeasured: EC50

# molecule, EC50
measured = [
    ("Cc1nn(C)c(C)c1-c1cc(F)cc(C2(NC(=O)c3ccccc3CNC(=O)C(=O)NCC#Cc3nccs3)CC2)c1F [Example 295]", "< 1 µM"),
    ("C[C@@H](C#Cc1ncccc1OCC(F)F)NC(=O)C(=O)NCc1ccccc1C(=O)NC1(c2ccc3nn(C)cc3c2)CC1 [Example 212]", "1 to 10 µM"),
    ("CCN(OC)C(=O)/C=C/CNC(=O)C(=O)NCc1ccccc1C(=O)NC1(c2cccc3ccccc23)CC1 [Example 558]", "1 to 10 µM"),
]

[Q] Name the recorded EC50 for COc1cc(C#N)ccc1C#CCNC(=O)C(=O)NCc1ccccc1C(=O)NC1(c2ccc3ccccc3c2)CC1 [Example 88] .
[A] < 1 µM

[Q] What value of measured EC50 is listed for COC(=O)/C=C/CNC(=O)C(=O)NCc1ccccc1C(=O)N[C@H](C)c1cc(-c2cnn(C3CC3)c2)cc(C(F)(F)F)c1 [Example 459] ?
[A] 1 to 10 µM

[Q] Dear colleague, I am looking for the recorded EC50 of the following molecule: O=C(NCC#Cc1nccs1)C(=O)NCc1ccccc1C(=O)NC1(c2cc(Cl)cc(-c3ccccc3F)c2)CC1 [Example 442]
[A] < 1 µM

[Q] # lookup: EC50 of C[C@@H](C#Cc1ncccc1Cl)NC(=O)C(=O)NCc1ccccc1C(=O)NC1(c2cc(F)cc(-c3cnn(CC(C)(C)O)c3)c2)CC1 [Example 280]
[A] < 1 µM

---

target: SARS-CoV-2 Papain-like (PLpro) protease (Severe acute respiratory syndrome coronavirus 2); assay: SARS-CoV-2 Papain-like (PLpro) protease biochemical enzyme inhibition assay (ubiquitin-fluorophore substrate, Ub-R110); conditions: Ub-R110 substrate; run in duplicate; read-out: PLpro IC50
pIC50: −log10 of the molar value.
Quick reference for pIC50 among some compounds

Answered examples (6):
# structure, testedOn, pIC50
records = [
    ("COC(=O)/C=C/CCNC(=O)C(=O)Nc1ccccc1C(=O)N[C@H](C)c1cccc2ccccc12", "SARS-CoV-2 Papain-like (PLpro) protease (Severe acute respiratory syndrome coronavirus 2)", "< 5.00"),
    ("NNC(=O)/C=C/CNC(=O)C(=O)NCc1ccccc1C(=O)NC1(c2cccc3ccccc23)CC1", "SARS-CoV-2 Papain-like (PLpro) protease (Severe acute respiratory syndrome coronavirus 2)", "6.00 to 7.00"),
    ("C#CCNC(=O)C(=O)NCc1ccccc1C(=O)NC1(c2cc(F)cc(-c3cnn(C)c3)c2)CC1", "SARS-CoV-2 Papain-like (PLpro) protease (Severe acute respiratory syndrome coronavirus 2)", "> 7.00"),
    ("Cn1cc2cc(C3(NC(=O)c4ccccc4CNC(=O)C(=O)NCC#Cc4ncccc4OCC(F)F)CC3)ccc2n1", "SARS-CoV-2 Papain-like (PLpro) protease (Severe acute respiratory syndrome coronavirus 2)", "> 7.00"),
    ("Cc1cccnc1C#CCNC(=O)C(=O)NCc1ccccc1C(=O)NC1(c2cc(F)cc(-c3cnn(C4CC4)c3)c2)CC1", "SARS-CoV-2 Papain-like (PLpro) protease (Severe acute respiratory syndrome coronavirus 2)", "> 7.00"),
    ("C[C@@H](NC(=O)c1ocnc1CNC(=O)C(=O)NCC#N)c1cccc2ccccc12", "SARS-CoV-2 Papain-like (PLpro) protease (Severe acute respiratory syndrome coronavirus 2)", "< 5.00"),
]

Turning to the following compound.
[Q] Returns the measured pIC50 for the input compound. Input: O=C(NC/C=C/c1ncccn1)C(=O)NCc1ccccc1C(=O)NC1(c2ccc3ccccc3c2)CC1
[A] > 7.00

---

target: UniProtKB P0DTD1; assay: SARS-CoV-2 Papain-like (PLpro) protease biochemical enzyme inhibition assay (ubiquitin-fluorophore substrate, Ub-R110); conditions: Ub-R110 substrate; run in duplicate; read-out: PLpro IC50
The entries below are paired with their reported IC50.

Use these answered entries as a reference point.
# compound, result
measured = [
    ("N#CCNC(=O)C(=O)NCc1ccccc1C(=O)NC1(c2cc(N3CC(O)C3)cc3ccccc23)CC1 [Example 330]", "< 100 nM"),
    ("C#Cc1cc(C(F)(F)F)cc(C2(NC(=O)c3ccccc3CNC(=O)C(=O)NCC#N)CC2)c1 [Example 70]", "100 to 1000 nM"),
    ("O=C(NCC#Cc1nccs1)C(=O)NCc1ccccc1C(=O)NC1(c2ccn3nccc3c2)CC1 [Example 399]", "< 100 nM"),
]

# evaluate next
[Q] State its IC50 on UniProtKB P0DTD1: COC(=O)/C=C/CCNC(=O)C(=O)NCC1C[C@@H]1C(=O)N[C@H](C)c1cccc2ccccc12 (stereo partly shown) [Example 19]
[A] > 10000 nM

---

system: SARS-CoV-2 replicon; assay: microbe, parasite or virus in culture; type: cell-based; settings: Severe acute respiratory syndrome coronavirus 2, Huh-7
EC50: recorded values

[Q] What does the data say about its EC50? Entry: C=CC(=O)NNC(=O)C(=O)NCc1ccccc1C(=O)N[C@H](C)c1cccc2ccccc12
[A] > 10000 nM

[Q] Param item = C[C@@H](C#Cc1ncc(F)cn1)NC(=O)C(=O)NCc1ccccc1C(=O)NC1(c2cc(F)cc(-c3cnn(C4CC4)c3)c2)CC1 ; retrieve measured EC50.
[A] < 1000 nM

[Q] Requested read-out: EC50. Entry: C#CCNC(=O)C(=O)NCc1ccccc1C(=O)NC1(c2cc(C#C)cc(C(F)(F)F)c2)CC1
[A] < 1000 nM

---

Below: a set of entries, each annotated with reported EC50.
tested on: SARS-CoV-2 replicon; experiment: microbe, parasite or virus in culture; type: cell-based; settings: Severe acute respiratory syndrome coronavirus 2, Huh-7

Sample answers from the record:
# compound, EC50
rows = [
    ("O=C(NCC#Cc1cnccn1)C(=O)NCc1ccccc1C(=O)NC1(c2ccc3ccccc3c2)CC1 [Example 172]", "< 1000 nM"),
    ("C[C@@H](C#Cc1nccs1)NC(=O)C(=O)NCc1ccccc1C(=O)NC1(c2cc(Cl)cc(-c3nccs3)c2)CC1 [Example 494]", "< 1000 nM"),
    ("O=C(NCC#Cc1ccccn1)C(=O)NCc1ccccc1C(=O)NC1(c2cc(F)cc(-c3cnn(C4CC4)c3)c2)CC1 [Example 252]", "< 1000 nM"),
]

[Q] I am curious: what EC50 value has been reported for N#Cc1nc(C#CCNC(=O)C(=O)NCc2ccccc2C(=O)NC2(c3ccc4ccccc4c3)CC2)ccc1Cl [Example 194] ?
[A] < 1000 nM

[Q] Field request: EC50 | item: COc1ccc2cccc(C3(NC(=O)c4ccccc4CNC(=O)C(=O)NCC#N)CC3)c2c1 [Example 348]
[A] 1000 to 10000 nM

[Q] Value lookup for EC50; key = C#CCNC(=O)C(=O)NCc1ccccc1C(=O)NC1(c2cc(OC)cc(-c3cnn(C4CC4)c3)c2)CC1 [Example 244]
[A] < 1000 nM

[Q] What value of EC50 has been recorded for this entry: CN(C)CCn1cc(-c2cc(F)cc(C3(NC(=O)c4ccccc4CNC(=O)C(=O)NCC#Cc4ccccn4)CC3)c2)cn1 [Example 250]
[A] < 1000 nM

[Q] Bench note: what EC50 did N#CCNC(=O)C(=O)NCc1ccccc1C(=O)NC1(c2cc(-c3cnn[nH]3)cc3ccccc23)CC1 [Example 425] show?
[A] < 1000 nM

[Q] I'd like to know its EC50. The compound in question is C[C@@H](NC(=O)c1ccccc1CNC(=O)C(=O)NCC#N)c1cc(-c2cnn(C(F)F)c2)cc(C(F)(F)F)c1 [Example 463]
[A] 1000 to 10000 nM

[Q] Which EC50 value is on record for C[C@@H](NC(=O)c1cc(F)c(F)cc1CNC(=O)C(=O)NCC#N)c1cccc2ccccc12 [Example 363] ?
[A] < 1000 nM

[Q] Return reported EC50; argument: CN(C)S(=O)(=O)n1cc(-c2cc(C3(NC(=O)c4ccccc4CNC(=O)C(=O)NCC#N)CC3)c3ccccc3c2)cn1 [Example 355]
[A] < 1000 nM

[Q] Looking for the measured EC50 of Cc1cc(C)nc(C#CCNC(=O)C(=O)NCc2ccccc2C(=O)NC2(c3ccc4ccccc4c3)CC2)n1 [Example 178] , can you help?
[A] < 1000 nM

---

target: SARS-CoV-2 Papain-like (PLpro) protease (Severe acute respiratory syndrome coronavirus 2, UniProt P0DTD1); experiment: SARS-CoV-2 Papain-like (PLpro) protease biochemical enzyme inhibition assay (ubiquitin-fluorophore substrate, Ub-R110); settings: Ub-R110 substrate; run in duplicate; read-out: PLpro IC50
propertyMeasured: IC50

The examples below pair each entry with its known result.
# structure, IC50
records = [
    ("C[C@@H](C#Cc1nccs1)NC(=O)C(=O)NCc1ccccc1C(=O)NC1(c2ccc3nn(C)cc3c2)CC1", "< 100 nM"),
    ("N#CCNC(=O)C(=O)NCc1ccccc1C(=O)NC1(c2cc(-c3cccs3)cc(Cl)c2F)CC1", "< 100 nM"),
    ("C[C@@H](NC(=O)c1ccccc1CNC(=O)C(=O)NCC/C=C/P(=O)(O)O)c1cccc2ccccc12", "> 10000 nM"),
    ("Cn1ccnc1C#CCNC(=O)C(=O)NCc1ccccc1C(=O)NC1(c2ccc3ccccc3c2)CC1", "< 100 nM"),
    ("N#CCNC(=O)C(=O)NCc1ccc(C(=O)NC2CC2)cc1C(=O)NC1(c2ccc(F)c3ccccc23)CC1", "< 100 nM"),
    ("NC(=O)N1CCC[C@H]1CNC(=O)C(=O)NCc1ccccc1C(=O)NC1(c2cccc3ccccc23)CC1", "1000 to 10000 nM"),
    ("C[C@@H](C#Cc1ncccc1CC#N)NC(=O)C(=O)NCc1ccccc1C(=O)NC1(c2ccc3nn(C)cc3c2)CC1", "< 100 nM"),
    ("N#CCNC(=O)C(=O)NCc1ccccc1C(=O)NC1(c2cc(-c3cnn(C4CC4)c3)cc3ccccc23)CC1", "< 100 nM"),
]

[Q] Entry N#CCNC(=O)C(=O)NCc1ccccc1C(=O)NC1(c2cccc3cc(F)ccc23)CC1 : reported IC50 = ?
[A] < 100 nM

[Q] Record request: IC50 value, item N#CCNC(=O)C(=O)NCc1ccccc1C(=O)NC1(c2c[nH]c3ncccc23)CC1
[A] < 100 nM

[Q] # IC50 lookup, item N#CCCCCNC(=O)C(=O)NCc1ccccc1C(=O)NC1(c2cc(Br)cc3ccccc23)CC1
[A] 1000 to 10000 nM

[Q] IC50 for CS(=O)(=O)/C=C/CNC(=O)C(=O)NCc1ccccc1C(=O)NC1(c2ccc3ccccc3c2)CC1 ?
[A] < 100 nM

[Q] Consider the compound COc1cccc(Oc2cc(C(F)(F)F)cc(C3(NC(=O)c4ccccc4CNC(=O)C(=O)NCC#N)CC3)c2)c1 and give its measured IC50.
[A] > 10000 nM

[Q] Requested field: IC50. Item: N#CN1CC[C@H](CNC(=O)C(=O)NCc2ccccc2C(=O)NC2(c3cccc4ccccc34)CC2)C1
[A] 100 to 1000 nM

[Q] Fill in: IC50 of COC(=O)/C=C/CNC(=O)C(=O)NCCc1ccccc1C(=O)N[C@H](C)c1cccc2ccccc12 is ___
[A] 100 to 1000 nM
